# SYSTEM: FGF receptor/BKL complex
# Sequence (Q86Z14 whole entry, one chain of several): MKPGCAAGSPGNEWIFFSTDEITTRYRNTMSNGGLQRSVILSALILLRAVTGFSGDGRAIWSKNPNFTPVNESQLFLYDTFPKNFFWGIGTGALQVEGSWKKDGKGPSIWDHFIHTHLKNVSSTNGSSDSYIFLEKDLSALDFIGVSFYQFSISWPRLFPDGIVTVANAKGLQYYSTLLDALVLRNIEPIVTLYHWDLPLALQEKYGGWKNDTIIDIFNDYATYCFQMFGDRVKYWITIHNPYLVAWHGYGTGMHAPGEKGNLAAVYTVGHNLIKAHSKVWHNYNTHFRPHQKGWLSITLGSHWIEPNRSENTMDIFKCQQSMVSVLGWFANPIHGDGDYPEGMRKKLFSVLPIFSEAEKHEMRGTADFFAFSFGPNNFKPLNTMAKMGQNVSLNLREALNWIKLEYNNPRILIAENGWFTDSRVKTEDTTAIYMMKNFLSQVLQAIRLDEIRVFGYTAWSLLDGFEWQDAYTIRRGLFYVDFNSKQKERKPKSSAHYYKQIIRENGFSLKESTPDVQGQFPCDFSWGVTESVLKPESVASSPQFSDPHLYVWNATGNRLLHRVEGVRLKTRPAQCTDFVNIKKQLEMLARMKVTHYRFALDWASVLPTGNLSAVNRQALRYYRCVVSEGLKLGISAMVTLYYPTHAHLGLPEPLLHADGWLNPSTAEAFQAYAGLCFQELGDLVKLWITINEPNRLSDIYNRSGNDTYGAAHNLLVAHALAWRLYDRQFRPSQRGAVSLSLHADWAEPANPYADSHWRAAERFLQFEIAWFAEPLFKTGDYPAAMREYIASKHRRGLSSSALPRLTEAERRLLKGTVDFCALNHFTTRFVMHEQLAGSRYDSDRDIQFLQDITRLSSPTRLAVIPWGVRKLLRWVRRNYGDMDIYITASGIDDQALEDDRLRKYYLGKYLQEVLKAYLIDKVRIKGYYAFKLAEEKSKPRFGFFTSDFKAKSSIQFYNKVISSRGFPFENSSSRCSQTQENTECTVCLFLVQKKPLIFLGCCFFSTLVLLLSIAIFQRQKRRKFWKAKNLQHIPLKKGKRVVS
# ASSAY_OVERVIEW: FGF receptor potency in an Erk phosphorylation assay in HEK293 overexpressing human BKL
# Format: cell-based
# CONDITION_LABEL: HEK293/BKL cells, pERK after 12 minutes, presence of 0.1% HSA; read-out: EC50 (0.1% HSA)
MEASUREMENT_LABEL: log10(EC50) (log10 of the value in µM)

molecule="S{Beta-169}-[2-[2-[[2-[2-[2-[[2-[2-[2-[[(4S)-4-carboxy-4-(15-carboxypentadecanoyl-amino)butanoyl]amino]ethoxy]ethoxy]acetyl]amino]ethoxy]ethoxy]acetyl]amino]-ethylamino]-2-oxoethyl]-Ala[Gln121,Leu168, … (protein) HPIPDSSPLLQFGGQVRQRYLYTDDAQQTEAHLEIREDGTVGGAADQSPESLLQLKALKPGVIQILGVKTSRFLCQRPDGALYGSLHFDPEACSFRELLLEDGYNVYQSEAHGLPLHLPGQKSPHRDPAPRGPARFLPLPGLPPALPEPPGILAPQPPDVGSSDPLSLCGPSQGRSPSYAS" measurement_label=log10(EC50) observed_measurement=-1.70
molecule="S{Beta-180}-[2-[2-[[2-[2-[2-[[2-[2-[2-[[(4S)-4-carboxy-4-(17-carboxyheptadecanoyl-amino)butanoyl]amino]ethoxy]ethoxy]acetyl]amino]ethoxy]ethoxy]acetyl]amino]-ethylamino]-2-oxoethyl]-Ala[Gln121,Leu168, … (protein) HPIPDSSPLLQFGGQVRQRYLYTDDAQQTEAHLEIREDGTVGGAADQSPESLLQLKALKPGVIQILGVKTSRFLCQRPDGALYGSLHFDPEACSFRELLLEDGYNVYQSEAHGLPLHLPGQKSPHRDPAPRGPARFLPLPGLPPALPEPPGILAPQPPDVGSSDPLSLVGPSQGRSPSYC" measurement_label=log10(EC50) observed_measurement=-1.70
molecule="S{Beta-180}-[2-[2-[[2-[2-[2-[[2-[2-[2-[[(4S)-4-carboxy-4-(13-carboxytridecanoyl-amino)butanoyl]amino]ethoxy]ethoxy]acetyl]amino]ethoxy]ethoxy]acetyl]amino]-ethylamino]-2-oxoethyl]-Ala[Gln121,Leu168,Cy … (protein) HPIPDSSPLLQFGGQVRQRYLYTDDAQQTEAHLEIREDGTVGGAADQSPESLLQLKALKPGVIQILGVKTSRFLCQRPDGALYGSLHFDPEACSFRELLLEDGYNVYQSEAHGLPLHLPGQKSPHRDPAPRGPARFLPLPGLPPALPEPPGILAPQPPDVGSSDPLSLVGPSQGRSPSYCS" measurement_label=log10(EC50) observed_measurement=-2.22
molecule="S{Beta-181}-[2-[2-[[2-[2-[2-[[2-[2-[2-[[(4S)-4-carboxy-4-(13-carboxytridecanoyl-amino)butanoyl]amino]ethoxy]ethoxy]acetyl]amino]ethoxy]ethoxy]acetyl]amino]-ethylamino]-2-oxoethyl]-Ala[Gln121,Leu168,Cy … (protein) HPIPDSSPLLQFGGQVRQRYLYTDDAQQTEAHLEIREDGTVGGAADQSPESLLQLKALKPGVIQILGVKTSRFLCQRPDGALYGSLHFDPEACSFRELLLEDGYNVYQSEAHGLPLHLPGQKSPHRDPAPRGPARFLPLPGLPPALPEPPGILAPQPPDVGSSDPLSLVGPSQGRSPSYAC" measurement_label=log10(EC50) observed_measurement=-1.39
molecule="4-[10-[[4-[2-[2-[2-[2-[2-[2-[[(1S)-5-acetamido-1-carboxy-pentyl]amino]-2-oxo-ethoxy]ethoxy]ethylamino]-2-oxo-ethoxy]ethoxy]ethylamino]-4-oxo-butyl]sulfonylamino]-10-oxo-decoxy]benzoic … (protein) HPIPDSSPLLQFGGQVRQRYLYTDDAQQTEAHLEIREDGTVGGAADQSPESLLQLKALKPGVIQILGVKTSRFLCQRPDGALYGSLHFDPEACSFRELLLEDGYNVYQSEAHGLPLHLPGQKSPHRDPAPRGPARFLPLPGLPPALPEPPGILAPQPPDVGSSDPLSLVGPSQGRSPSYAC" measurement_label=log10(EC50) observed_measurement=-0.88
molecule="S{Beta-180}-[2-[2-[[2-[2-[2-[[2-[2-[2-[[(4S)-4-carboxy-4-(11-carboxyundecanoyl-amino)butanoyl]amino]ethoxy]ethoxy]acetyl]amino]ethoxy]ethoxy]acetyl]amino]-ethylamino]-2-oxoethyl]-Ala[Gln121,Leu168,Cys … (protein) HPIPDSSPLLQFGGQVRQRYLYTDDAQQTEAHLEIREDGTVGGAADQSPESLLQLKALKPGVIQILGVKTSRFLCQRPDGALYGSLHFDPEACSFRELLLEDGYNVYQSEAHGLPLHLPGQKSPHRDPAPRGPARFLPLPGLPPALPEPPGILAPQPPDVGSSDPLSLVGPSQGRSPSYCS" measurement_label=log10(EC50) observed_measurement=-2.40
molecule="16-[[(1S)-4-[2-[2-[2-[2-[2-[2-(2-acetamidoethylamino)-2-oxo-ethoxy]ethoxy]ethylamino]-2-oxo-ethoxy]ethoxy]ethylamino]-1-carboxy-4-oxo-butyl]amino]-16-oxo-hexadecanoic … (protein) HPIPDSSPLLQFGGQVRQRYLYTDDAQQTEAHLEIREDGTVGGAADQSPESLLQLKALKPGVIQILGVKTSRFLCQRPDGALYGSLHFDPEACSFRELLLEDGYNVYQSEAHGLPLHLPGQKSPHRDPAPRGPARFLPLPGLPPALPEPPGILAPQPPDVGSSDPLSLVGPSQCRSPSYAS" measurement_label=log10(EC50) observed_measurement=-2.40
molecule="S{Beta-176}-[2-[2-[[2-[2-[2-[[2-[2-[2-[[(4S)-4-carboxy-4-(15-carboxypentadecanoyl-amino)butanoyl]amino]ethoxy]ethoxy]acetyl]amino]ethoxy]ethoxy]acetyl]amino]-ethylamino]-2-oxoethyl]-Ala[Gln121,Leu168, … (protein) HPIPDSSPLLQFGGQVRQRYLYTDDAQQTEAHLEIREDGTVGGAADQSPESLLQLKALKPGVIQILGVKTSRFLCQRPDGALYGSLHFDPEACSFRELLLEDGYNVYQSEAHGLPLHLPGQKSPHRDPAPRGPARFLPLPGLPPALPEPPGILAPQPPDVGSSDPLSLVGPSQGRCPSYAS" measurement_label=log10(EC50) observed_measurement=-0.43

Values compiled from patent US20170182124A1.
